# System Under Test: T1, PSMA Fab (biotinylated (site not stated))
# T1 construct: The panning ELISA names only 'biotinylated PSMA Fab' captured on neutravidin coated plates; also called Anti-PSMA Fab; 006 PSMA Fab
# Experiment Description: clonal phage ELISA; biotinylated PSMA Fab on neutravidin plate, wells pre-incubated with PSMA antigen as competitor; anti-M13 HRP detection;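 also: crude clonal phage supernatants added to antigen-treated wells without a wash, incubated briefly, then bound phage read out via horse radish–conjugated anti-M13 antibody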
Where no end group is shown, it is not given here.
Classify: Criterion met when Phage binding ELISA signal, Anti-PSMA Fab with PSMA antigen is strictly less than 0.08; Criterion not met when Phage binding ELISA signal, Anti-PSMA Fab with PSMA antigen is not.

{"columns": ["Binder", "Discrete Label"],
 "data": [
  ["IVKACKPEWMCVGF (also called Peptide-180 library clone) [Phage-3232]", "Criterion met"],
  ["VTAYCVPPWMCAVF (also called Peptide-180 library clone) [Phage-3231]", "Criterion not met"],
  ["ITPLCSPAWMCQGL (also called Peptide-180 library clone) [Phage-3229]", "Criterion met"],
  ["PLPMCVPAWMCAGF (cysteine pairing not given here; also: fused to phage pIII, fusion site not given here, also called Peptide-180 library clone) [Phage-3236]", "Criterion not met"],
  ["WEHRCTPEWMCTGF (also called Peptide-180 library clone) [Phage-3238]", "Criterion not met"],
  ["VERLCMPEWMCLGF (also called Peptide-180 library clone) [Phage-3235]", "Criterion not met"],
  ["VGHVCLPPWMCTGF (also called Peptide-180 library clone) [Phage-3228]", "Criterion met"],
  ["PYAMCEPAWMCSGF (cysteine pairing not given here; also: fused to phage pIII, fusion site not given here, also called Peptide-180 library clone) [Phage-3233]", "Criterion met"],
  ["DGIRCVPNWMCVGF (also called Peptide-180 library clone) [Phage-3234]", "Criterion not met"],
  ["LTVLCEPAWMCVGF (also called Peptide-180 library clone) [Phage-3226]", "Criterion not met"],
  ["PIVKCSPAWMCSGF (also called Peptide-180 library clone) [Phage-3227]", "Criterion met"],
  ["EYHKCIPEWMCAGF (cysteine pairing not given here; also: fused to phage pIII, fusion site not given here, also called Peptide-180 library clone) [Phage-3237]", "Criterion not met"]
]}
